Taken from PubChem BioAssay.

Overview of reported composite z-score across a group of compounds:
- assay_system: Carbonic anhydrase 2 (Homo sapiens) (UniProt P00918)
- procedure_text: compounds binding carbonic anhydrase 2 – biochemical, small-molecule microarray, Alexa647-labelled CAII, profiling panel (AID 1122)
- reported_conditions: CAII-A647 binding fluorescence, higher = more signal
outcome_measure: composite z-score

compound=COc1ccc(C#Cc2ccc3c(c2)[C@]2(C(=O)N3)[C@H](C(=O)N3CCN(c4ncccn4)CC3)[C@H]3C(=O)O[C@H](c4ccccc4)[C@H](c4ccccc4)N3[C@@H]2c2ccc(O)cc2)cc1 reported_result=0.327
compound=C=C(CCCC)/C(=C/C[C@H](OC(C)=O)c1ccc(CO)o1)c1cc(C(=O)OC)ccc1OC reported_result=0.694
compound=CC(C)C[C@@H]1NC(=O)[C@@H]2C[C@H](C(=O)NCCCCN(C)C)[C@H](c3ccc(O)cc3)N2C1=O reported_result=0.335
compound=Cc1ccc([C@H]2C(C(=O)O)=C[C@@H](C(C)C)N2S(=O)(=O)c2ccc(C)cc2)cc1 reported_result=0.772
compound=CC(C)(C)OC(=O)CC[C@@]1(C(=O)N2CCOCC2)N=C(c2ccc(OCCCO)cc2)O[C@@H]1c1ccccc1N=[N+]=[N-] reported_result=0.74
compound="CCCCCN1CC=CC23O[C@@H]4C=CCCOC(=O)C4[C@H]2C(=O)N(CCCO)[C@@H]3C1=O (stereo not given in full)" reported_result=0.343
compound=CN(C)CCCC[C@@H]1NC(=O)[C@@H]2C[C@H](C(=O)NCCCCCN)[C@H](c3ccc(O)cc3)N2C1=O reported_result=0.462
compound="O=P(NCC1(CC2(c3ccccc3)CO2)CC1)(c1ccccc1)c1ccccc1 (stereo not given)" reported_result=0.692
compound=C=CCN1C(=O)[C@@]2(O[C@@H](CCO)[C@H]([Si](C)(C)c3ccc(OC)cc3)[C@H]2C)c2cc(N3C(=O)COc4ccccc43)ccc21 reported_result=0.277
compound=NC(=O)NCC#Cc1ccc2c(c1)[C@]1(C(=O)N2)[C@H](C(=O)NC[C@H](O)c2ccccc2)[C@H]2C(=O)O[C@H](c3ccccc3)[C@H](c3ccccc3)N2[C@@H]1c1ccccc1OCCO reported_result=0.539
compound=Cc1ccc(N2C(=O)c3ccccc3[C@](C)(C(=O)NCCN3CCOCC3)[C@@H]2c2ccc(CO)cc2)nc1 reported_result=0.494
compound=COC(=O)[C@@]1(Cc2ccc(OC)cc2)[C@H]2c3cc(C(=O)N(C)C)n(Cc4ccc(OC)c(OC)c4)c3C[C@H]2CN1C(=O)c1ccccc1 reported_result=0.587
compound=C=C(/C(=C/C[C@@H](OC(C)=O)c1ccc(CO)o1)c1cnc2ccccc2c1)C(C)C reported_result=0.815
compound=O=c1cccc(-c2ccc3ccccc3c2)o1 reported_result=-0.263
compound="COc1cc(NN2C(C(O)c3ccccc3)C=CC3C(=O)N(c4ccccc4)C(=O)C32)cc(OC)c1OC (stereo not given)" reported_result=0.831
compound=COCCOC(=O)N1C(=O)[C@@]2(c3ccccc31)[C@H](C(=O)N1CCCCCCC1)[C@H]1C(=O)O[C@H](c3ccccc3)[C@H](c3ccccc3)N1[C@@H]2c1ccccc1OCCO reported_result=0.838
compound=C=CC[C@]1(C(=O)O)N=C(c2ccc(OCCCO)cc2)O[C@H]1c1ccccc1CN=[N+]=[N-] reported_result=0.876
compound=C=C[C@H](OC)[C@@H](OC(=O)Nc1ccc(SC)cc1)c1ccc(OCCO)cc1 reported_result=0.503
compound=O=C1C[C@@](C(=O)O)(c2ccc([N+](=O)[O-])cc2)[C@@H](c2ccc(CO)cc2I)N1C1CCCCC1 reported_result=0.673
compound=Cc1ccc(S[C@]2(C(=O)NCCCN(C)C)CC(=O)N(C(C)C)[C@@H]2c2ccc(CO)cc2I)cc1 reported_result=0.721
compound=C=C(C(=O)CC[C@@H](OC(C)=O)c1ccc(OCCO)cc1)C(C)C reported_result=0.76
compound=COCCCNC(=O)[C@@]1(Sc2ccc(C)cc2)CC(=O)N(Cc2ccccc2)[C@@H]1c1ccc(CO)cc1 reported_result=0.534
compound=COC(=O)c1c(CC[C@@H](CO)NC(=O)Nc2ncn[nH]2)oc(C(=O)Cc2ccccc2)c1C(=O)OC reported_result=0.768
compound="C=CCC(OC(C)=O)[C@@H]1[C@@H](N(Cc2ccc(-c3ccccc3)cc2)C(=O)c2ccc(C)cc2)c2cc(OCCCO)ccc2N1C(=O)c1ccc2ccccc2n1 (stereo not given in full)" reported_result=0.0144
compound=CCOC(=O)C1=C[C@@H](C(C)(C)C)N(S(=O)(=O)c2ccc(C)cc2)[C@H]1c1ccc(Cl)c(Cl)c1 reported_result=0.497
compound=COc1ccc(C(=O)Nc2cccc(CN3C(=O)[C@@]4(O[C@@H](CC(=O)N5Cc6ccccc6C[C@H]5CO)[C@H]([Si](C)(C)c5ccc(OC)cc5)[C@H]4C)c4ccccc43)c2)cc1 reported_result=0.576
compound=COC(=O)[C@@]1(Cc2ccccc2)[C@H]2c3cc(C(=O)N(C)C)n(Cc4cc(F)c(F)c(F)c4)c3C[C@H]2CN1C(=O)c1ccccc1 reported_result=0.656
compound=COC(=O)[C@@]1(Cc2ccc(OC)cc2)[C@H]2c3cc(C(=O)N4CCCC4)n(C[C@H](O)CO)c3C[C@H]2CN1C(=O)c1ccccc1 reported_result=0.869
compound="CCCCN1CC=CC23O[C@@H]4C=CCCOC(=O)C4[C@H]2C(=O)N(CCCO)[C@@H]3C1=O (stereo not given in full)" reported_result=0.488
compound=COCC1=C([C@H](O)CCc2ccccc2)[C@H](CO)[C@@H]2C(=O)N(Cc3ccccc3)C(=O)[C@@H]2C1 reported_result=-0.0186
